subject_of_test: isolated guinea pig ascending colon (Cavia porcellus, UniProt O70528)
Sequence (O70528 whole entry): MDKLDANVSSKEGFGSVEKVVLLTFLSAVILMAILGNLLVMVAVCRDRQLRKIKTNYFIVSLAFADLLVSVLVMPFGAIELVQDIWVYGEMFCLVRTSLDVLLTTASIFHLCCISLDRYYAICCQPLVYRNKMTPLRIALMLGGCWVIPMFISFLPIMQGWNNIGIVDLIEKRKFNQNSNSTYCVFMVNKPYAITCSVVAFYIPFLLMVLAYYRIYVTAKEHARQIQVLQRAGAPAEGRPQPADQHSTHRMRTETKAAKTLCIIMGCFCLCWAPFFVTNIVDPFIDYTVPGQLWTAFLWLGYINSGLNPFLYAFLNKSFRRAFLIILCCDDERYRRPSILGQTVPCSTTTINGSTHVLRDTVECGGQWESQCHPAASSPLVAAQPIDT
experiment: contraction of isolated guinea pig ascending colon
experimental_conditions: male Hartley guinea pig ascending colon, Tyrode solution 37°C, relative to methacholine (30 µM) contraction; read-out: Contraction of removed colon (EC50)
Class assignment keyed on EC50, ranges Low: < 2 nM; Medium: ≥ 2 nM and < 5 nM; High: ≥ 5 nM

Worked set:
>>> class_name("CCCNC(=O)NCCCCCN1CCC(CNC(=O)c2cc(Cl)c(N)cc2OC)CC1 [Example 48]")
"Medium"
>>> class_name("COc1cc(N)c(Cl)cc1C(=O)NC[C@H]1CCN(CCCCCNC(=O)Nc2ccccc2)C1 [Example 56]")
"Low"
>>> class_name("COc1cc(N)c(Cl)cc1C(=O)NC[C@H]1CCN(CCCCNC(=O)c2cn(C)c3ccccc23)C1 [Example 85]")
"Low"
>>> class_name("COc1cc(N)c(Cl)cc1C(=O)NCC1CCN(CCCCCNC(=O)c2cn(C)c3ccccc23)CC1 [Example 90]")
"Low"
>>> class_name("COc1cc(N)c(Cl)cc1C(=O)NCC1CCN(CCCCNC(=O)c2ccc3ccccc3c2)CC1 [Example 25]")
"Medium"
>>> class_name("COc1cc(N)c(Cl)cc1C(=O)NC[C@H]1CCN(CCCCNC(=O)c2cccc3ccccc23)C1 [Example 22]")
"Medium"
>>> class_name("COc1cc(N)c(Cl)cc1C(=O)NC[C@H]1CCN(CCCCCNC(=O)c2ccccc2)C1 [Example 27]")
"High"
>>> class_name("COc1cc(N)c(Cl)cc1C(=O)NCC1CCN(CCCCCNC(=O)c2ccccc2)CC1 [Example 29]")
"Medium"
>>> class_name("COc1cc(N)c(Cl)cc1C(=O)NCC1CCN(CCCCNC(=O)c2cccc3ccccc23)CC1 [Example 24]")
"Medium"
>>> class_name("COc1cc(N)c(Cl)cc1C(=O)NCC1CCN(CCCCNC(=O)c2cn(C)c3ccccc23)CC1 [Example 98]")
"Medium"

Please let me know in which category the item CCCNC(=O)NCCCCCN1CC[C@H](CNC(=O)c2cc(Cl)c(N)cc2OC)C1 [Example 46] belongs.
High

Tag the class for COc1cc(N)c(Cl)cc1C(=O)NCC1CCN(CCCCCNC(=O)c2cccc(Cl)c2)CC1 [Example 30]
Low

Which class is correct for the following compound? COc1cc(N)c(Cl)cc1C(=O)NC[C@H]1CCN(CCCCCNC(=O)c2cn(C)c3ccccc23)C1 [Example 88]
Low

Into which category would you place COc1cc(N)c(Cl)cc1C(=O)NCC1CCN(CCCCCN2C(=O)c3ccccc3C2=O)C1 (centres unmarked) [Example 70] ?
High

###

subject_of_test: 5-HT3 receptor (Rattus norvegicus, UniProt P35563)
Construct: crude synapse membrane sample was prepared from rat cerebral cortex; from tissue; host or cells: rat cerebral cortex, crude synaptic membranes
Sequence (P35563 24-483): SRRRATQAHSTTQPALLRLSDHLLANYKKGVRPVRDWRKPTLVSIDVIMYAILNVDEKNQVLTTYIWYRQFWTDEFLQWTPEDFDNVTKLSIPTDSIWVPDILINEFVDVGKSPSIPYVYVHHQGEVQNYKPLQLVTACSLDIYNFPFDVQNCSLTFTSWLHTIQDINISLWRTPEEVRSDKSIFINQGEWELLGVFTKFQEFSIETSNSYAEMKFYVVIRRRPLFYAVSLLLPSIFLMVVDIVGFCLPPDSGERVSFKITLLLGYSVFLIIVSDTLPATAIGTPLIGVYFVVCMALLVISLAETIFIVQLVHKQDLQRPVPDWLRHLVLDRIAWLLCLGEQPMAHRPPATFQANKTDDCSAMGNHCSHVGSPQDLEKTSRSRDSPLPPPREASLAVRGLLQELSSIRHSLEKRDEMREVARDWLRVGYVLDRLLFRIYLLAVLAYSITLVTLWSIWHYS
experiment: 5-HT3 receptor binding test
experimental_conditions: [3H]Granisetron 1.0 nM, crude synapse membrane from rat cerebral cortex, 25°C; cells without asterisk; read-out: Affinity for receptor (Ki value, nM) 5-HT3
readout_type: Ki (nM)
Answers are plain numbers, in nM.

>>> readout_number("COc1cc(N)c(Cl)cc1C(=O)NC[C@H]1CCN(CCCCNC(=O)c2cn(C)c3ccccc23)C1 [Example 85]")
260
>>> readout_number("COc1cc(N)c(Cl)cc1C(=O)NCCCCCN1CC[C@H](CNC(=O)c2cc(Cl)c(N)cc2OC)C1 [Example 78]")
370
>>> readout_number("COc1cc(N)c(Cl)cc1C(=O)NCC1CCN(CCCCCNC(=O)Nc2ccc(Cl)cc2)CC1 [Example 59]")
190

Okay, next one:
Name the recorded Ki for COc1cc(N)c(Cl)cc1C(=O)NC[C@H]1CCN(CCCCCNC(=O)c2cn(C)c3ccccc23)C1 [Example 88] .
350

###

subject_of_test: 5-HT3 receptor (Rattus norvegicus)
Construct: crude synapse membrane sample was prepared from rat cerebral cortex; from tissue; host or cells: rat cerebral cortex, crude synaptic membranes
experiment: 5-HT3 receptor binding test
pIC50: −log10 of the molar value.
readout_type: pIC50

Value lookup for pIC50; key = COc1cc(N)c(Cl)cc1C(=O)NC[C@H]1CCN(CCCCNC(=O)c2cn(C(C)C)c3ccccc23)C1
< 6.00
